- Organism: Rattus norvegicus
- ASSAY TEXT: Open TG-GATES - Regimen: Single
- Type: toxicity, organism-based, Sprague-Dawley
- Design: regimen Single, gender Male, age 6 weeks
- SETTINGS: in vivo, po, 0 mg/kg, 3 h, tissue Blood, route gavage, dose level Control
EXPERIMENTAL READOUT: Plat (x10_4/uL)
Give bare numbers, in x10_4/uL.

Take a look at these entries with their results.
CCCCNC(=O)NS(=O)(=O)c1ccc(C)cc1 [TOLBUTAMIDE] ... 128.5
CN(C)CCCN1c2ccccc2Sc2ccc(Cl)cc21 ... 116.1
Nc1ccc(Cc2ccc(N)cc2)cc1 ... 145.5

Report Plat for each item below.
1. NS(=O)(=O)c1cc(C(=O)O)c(NCc2ccco2)cc1Cl [FUROSEMIDE]
2. COc1ccc([C@@H]2Sc3ccccc3N(CCN(C)C)C(=O)[C@@H]2OC(C)=O)cc1

[115.8, 127.1]

----------
Assignment: determine reported KIDNEY_L for the given molecules.
- Species: Rattus norvegicus
- ASSAY TEXT: Open TG-GATES - Regimen: Daily Repeat
- Assay type: toxicity, organism-based, Sprague-Dawley
- Design: regimen Daily Repeat, gender Male, age 6 weeks
- SETTINGS: in vivo, po, 300 mg/kg, […], tissue Kidney, route gavage, dose level Middle, time 28 day
Answers are plain numbers, in g.

// worked examples, KIDNEY_L included
CCCCNC(=O)NS(=O)(=O)c1ccc(C)cc1 [TOLBUTAMIDE] ... 1.4
CC(S)C(=O)NCC(=O)O (centres undefined) ... 1.4
CC(=O)[C@@]1(O)CC[C@H]2[C@@H]3C=C(Cl)C4=CC(=O)CC[C@]4(C)[C@H]3CC[C@@]21C ... 1.2

We next turn to a different molecule, shown below.
Entry `O=C(O)c1ccccc1Nc1ccccc1` has what KIDNEY_L?
1.5

----------
- Organism: Rattus norvegicus
- ASSAY TEXT: Open TG-GATES - Regimen: Daily Repeat
- Format: toxicity, organism-based, Sprague-Dawley
- Parameters: regimen Daily Repeat, gender Male, age 6 weeks
- SETTINGS: in vivo, po, 0 mg/kg, […], tissue Blood, route gavage, dose level Control, time 28 day
EXPERIMENTAL READOUT: Ret (%)
One number for each entry, in %.

CCCCNC(=O)NS(=O)(=O)c1ccc(C)cc1 [TOLBUTAMIDE] ... 2.3

Hey, can you go through the list below and give me Ret for every item?
1. O=c1ccc2ccccc2o1 [COUMARIN]
2. O=C(O)c1ccccc1Nc1ccccc1 [FENAMIC ACID]
3. CCN(CC)C(=S)SSC(=S)N(CC)CC
4. CCCCC1C(=O)N(c2ccccc2)N(c2ccccc2)C1=O [PHENYLBUTAZONE]

1: 2.8; 2: 2.7; 3: 2.8; 4: 2.1

----------
- Species on record: Rattus norvegicus
- ASSAY TEXT: Open TG-GATES - Regimen: Daily Repeat
- Format: toxicity, organism-based, Sprague-Dawley
- Parameters: regimen Daily Repeat, gender Male, age 6 weeks
- SETTINGS: in vivo, po, 300 mg/kg, […], tissue Blood, route gavage, dose level Middle, time 28 day
EXPERIMENTAL READOUT: WBC
The answer consists of two parts: a number and, after it, its unit.

CC(S)C(=O)NCC(=O)O (centres undefined) [TIOPRONIN] ... 146.8 x10_2/uL
CCCCNC(=O)NS(=O)(=O)c1ccc(C)cc1 [TOLBUTAMIDE] ... 134 x10_2/uL
CC(=O)[C@@]1(O)CC[C@H]2[C@@H]3C=C(Cl)C4=CC(=O)CC[C@]4(C)[C@H]3CC[C@@]21C [CHLORMADINONE] ... 105.1 x10_2/uL

Next item in the queue.
What does the record list as WBC for O=C(O)c1ccccc1Nc1ccccc1 [FENAMIC ACID] ?
92.3 x10_2/uL
